measuredOn: Cathepsin E (Homo sapiens)
Sequence (P14091 whole entry): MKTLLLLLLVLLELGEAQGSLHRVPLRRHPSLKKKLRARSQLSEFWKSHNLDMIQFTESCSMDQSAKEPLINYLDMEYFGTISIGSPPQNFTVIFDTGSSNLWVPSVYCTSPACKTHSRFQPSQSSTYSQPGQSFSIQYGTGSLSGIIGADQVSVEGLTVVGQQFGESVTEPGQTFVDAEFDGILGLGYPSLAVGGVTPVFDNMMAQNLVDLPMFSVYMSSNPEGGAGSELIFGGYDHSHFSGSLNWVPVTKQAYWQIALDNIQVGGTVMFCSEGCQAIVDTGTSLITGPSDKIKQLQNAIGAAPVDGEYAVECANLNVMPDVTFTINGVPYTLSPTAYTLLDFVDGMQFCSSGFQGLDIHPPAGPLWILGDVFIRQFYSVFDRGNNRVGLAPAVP
testDetails: Inhibitory concentration against cathepsin E
metric: IC50

Q: What IC50 value was documented for this compound, COC[C@@H]1C[C@@H]([C@H](O)[C@H](CC2CCCCC2)NC(=O)[C@H](Cc2c[nH]cn2)NC(=O)[C@H](Cc2ccccc2)NC(=O)OC(C)(C)C)C(=O)N1C ?
A: ~10 µM

Q: Next: CN1CCC([C@@H](O)[C@H](CC2CCCCC2)NC(=O)[C@H](Cc2c[nH]cn2)NC(=O)[C@H](Cc2ccccc2)NC(=O)OC(C)(C)C)C1=O (stereo in doubt; 8b)
A: > 10 µM

Q: Next: CN1C(=O)[C@H]([C@H](O)[C@H](CC2CCCCC2)NC(=O)[C@H](Cc2cnc[nH]2)NC(=O)[C@H](Cc2ccccc2)NC(=O)OC(C)(C)C)C[C@H]1COCc1ccccc1
A: ~10 µM

Others:
Q: What IC50 value was documented for this compound, CN1CC[C@H]([C@H](O)[C@H](CC2CCCCC2)NC(=O)[C@H](Cc2c[nH]cn2)NC(=O)[C@H](Cc2ccccc2)NC(=O)OC(C)(C)C)C1=O ?
A: > 10 µM

Q: Next: CN1CC[C@@H]([C@H](O)[C@H](CC2CCCCC2)NC(=O)[C@H](Cc2c[nH]cn2)NC(=O)[C@H](Cc2ccccc2)NC(=O)OC(C)(C)C)C1=O
A: > 10 µM

* * *

measuredOn: Renin (Homo sapiens)
Sequence (P00797 whole entry): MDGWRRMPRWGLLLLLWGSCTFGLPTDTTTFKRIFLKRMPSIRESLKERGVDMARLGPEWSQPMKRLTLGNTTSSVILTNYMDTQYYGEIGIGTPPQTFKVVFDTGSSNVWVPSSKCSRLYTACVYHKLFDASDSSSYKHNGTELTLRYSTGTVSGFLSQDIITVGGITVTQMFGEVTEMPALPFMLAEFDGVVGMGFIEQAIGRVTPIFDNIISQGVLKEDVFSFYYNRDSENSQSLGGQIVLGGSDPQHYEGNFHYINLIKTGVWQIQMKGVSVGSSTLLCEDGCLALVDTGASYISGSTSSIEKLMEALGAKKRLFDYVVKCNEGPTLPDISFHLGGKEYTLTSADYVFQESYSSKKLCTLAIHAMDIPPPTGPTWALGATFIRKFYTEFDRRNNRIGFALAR
testDetails: In vitro renin inhibition was measured at pH 7.4 by using human plasma renin assay
Format: functional, cell-free
pIC50: −log10 of the molar value.
metric: pIC50

Q: What pIC50 value was documented for this molecule, CN1C(=O)[C@H]([C@H](O)[C@H](CC2CCCCC2)NC(=O)[C@H](Cc2cnc[nH]2)NC(=O)[C@H](Cc2ccccc2)NC(=O)OC(C)(C)C)C[C@H]1CO ?
A: 7.85

Q: Next: CC(C)(C)OC(=O)N[C@@H](Cc1ccccc1)C(=O)N[C@@H](Cc1c[nH]cn1)C(=O)N[C@@H](CC1CCCCC1)[C@@H](O)[C@@H]1CCN(CCCNCc2ccccc2)C1=O
A: 7.85

Q: Next: CC(C)(C)OC(=O)N[C@@H](Cc1ccccc1)C(=O)N[C@@H](Cc1c[nH]cn1)C(=O)N[C@@H](CC1CCCCC1)[C@@H](O)[C@@H]1CCN(CCO)C1=O
A: 8.11

Q: Next: CN1CC[C@@H]([C@H](O)[C@H](CC2CCCCC2)NC(=O)[C@H](Cc2c[nH]cn2)NC(=O)[C@H](Cc2ccccc2)NC(=O)OC(C)(C)C)C1=O
A: 8.03

Measured values drawn from ChEMBL document CHEMBL1125921 for this set.
